# targetUnderTest: T1, human IL-13 (human, UniProt P35225 25-146, limits assumed)
# T1 construct: The KinExA antigen was detected with an anti-HIS IgG, so it probably carried a HIS tag; also called Interleukin-13; hIL-13
# T1 sequence (P35225 other isoform, or with tags, fused parts or gaps limits assumed): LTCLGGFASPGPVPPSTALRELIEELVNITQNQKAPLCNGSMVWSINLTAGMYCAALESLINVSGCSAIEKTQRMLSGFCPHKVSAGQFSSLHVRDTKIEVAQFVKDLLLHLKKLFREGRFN
# testSummary: SPR array (Carterra LSA), antibody captured on anti-human pAb HC30M chip, human IL-13 0.05-100 nM as analyte, 25 C, 1:1 fit
measuredEndpoint: pKd
The value called pKd is obtained by taking minus log10 of the concentration in mol/L.

NB-3 (antibody, human IgG4 S228P, kappa, V domains shown) VH: QVTLRESGPALVKPTQTLTLTCTVSGASLSSYSVNWIRQPPGKALEWLAMIWGDGKIVYNSALKSRLTISKDTSKNQVVLTMTNMDPVDTATYYCAGEGYYPYAMDVWGQGSLVTVSS VL: DIVMTQSPDSLSVSLGERATINCRASKSVDSYGNSYMHWYQQKPGQPPKLLIYLASNLESGVPDRFSGSGSGTDFTLTISSLQAEDVAVYYCQQNNEDPRTFGGGTKVEIKR    8.72
NB-9 (antibody, human IgG4 S228P, kappa, V domains shown) VH: QVTLRESGPALVKPTQTLTLTCTVSGFSLSAYSVNWIRQPPGKALEWLAMIWGSGKIVYNSALKSRLTISKDTSKNQVVLTMTNMDPVDTATYYCAGDGYYPYAMDNWGQGSLVTVSS VL: DIVMTQSPDSLSVSLGERATINCRASKSVDSYGNSFMHWYQQKPGQPPKLLIYLASNLESGVPDRFSGSGSGTDFTLTISSLQAEDVAVYYCQQNNEDPRTFGGGTKVEIKR    8.62
NB-7 (antibody, human IgG4 S228P, kappa, V domains shown) VH: QVTLRESGPALVKPTQTLTLTCTVSGFSLSAYSVNWIRQPPGKALEWLAMIWGDGKIVYNSALKSRLTISKDTSKNQVVLTMTNMDPVDTATYYCAGDGYYPYAMDNWGQGSLVTVSS VL: DIVMTQSPDSLSVSLGERATINCRASKSVDSYGNSFMHWYQQKPGQPPKLLIYLASNLESGVPDRFSGSGSGTDFTLTISSLQAEDVAVYYCQQNNEDPLTFGGGTKVEIKR    8.08
NB-4 (antibody, human IgG4 S228P, kappa, V domains shown) VH: QVTLRESGPALVKPTQTLTLTCTVSGASLSAYSVNWIRQPPGKALEWLAMIWGDGKIVYNSALKSRLTISKDTSKNQVVLTMTNMDPVDTATYYCAGDGYYPYAMDNWGQGSLVTVSS VL: DIVMTQSPDSLSVSLGERATINCRASKSVDSYGNSFMHWYQQKPGQPPKLLIYLASNLESGVPDRFSGSGSGTDFTLTISSLQAEDVAVYYCQQNNEDPLTFGGGTKVEIKR    7.87
NB-8 (antibody, human IgG4 S228P, kappa, V domains shown) VH: QVTLRESGPALVKPTQTLTLTCTVSGASLSAYSVNWIRQPPGKALEWLAMIWGDGKIVYNSALKSRLTISKDTSKNQVVLTMTNMDPVDTATYYCAGEGYYPYAMDYWGQGSLVTVSS VL: DIVMTQSPDSLSVSLGERATINCRASKSVDSYGNSFMHWYQQKPGQPPKLLIYLASNLESGVPDRFSGSGSGTDFTLTISSLQAEDVAVYYCQQNNEDPRTFGGGTKVEIKR    8.59

Read off the recorded pKd for NB-2 (antibody, human IgG4 S228P, kappa, V domains shown) VH: QVTLRESGPALVKPTQTLTLTCTVSGFSLSAYSVNWIRQPPGKALEWLAMIWGDGKIVYNSALKSRLTISKDTSKNQVVLTMTNMDPVDTATYYCAGLGYYPYAMDNWGQGSLVTVSS VL: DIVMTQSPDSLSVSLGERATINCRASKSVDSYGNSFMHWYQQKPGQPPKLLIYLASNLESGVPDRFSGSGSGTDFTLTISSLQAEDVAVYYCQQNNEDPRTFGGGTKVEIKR
8.18

Identify measured pKd corresponding to NB-6 (antibody, human IgG4 S228P, kappa, V domains shown) VH: QVTLRESGPALVKPTQTLTLTCTVSGASLSAYSVNWIRQPPGKALEWLAMISGDGKIVYNSALKSRLTISKDTSKNQVVLTMTNMDPVDTATYYCAGDGYYPYAMDNWGQGSLVTVSS VL: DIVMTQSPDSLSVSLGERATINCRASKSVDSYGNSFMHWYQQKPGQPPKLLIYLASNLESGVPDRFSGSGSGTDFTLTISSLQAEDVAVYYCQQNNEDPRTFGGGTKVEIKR
8.48

Give the reported value of pKd for this record: NB-10 (antibody, human IgG4 S228P, kappa, V domains shown) VH: QVTLRESGPALVKPTQTLTLTCTVSGASLSAYSVNWIRQPPGKALEWLAMIWGDGKIVYNSALKSRLTISKDTSKNQVVLTMTNMDPVDTATYYCAGDGYYPYAMDNWGQGSLVTVSS VL: DIVMTQSPDSLSVSLGERATINCRASKSVDYYGNSFMHWYQQKPGQPPKLLIYLASNLESGVPDRFSGSGSGTDFTLTISSLQAEDVAVYYCQQNNEDPLTFGGGTKVEIKR
7.87

Write down pKd measured for item NB-5 (antibody, human IgG4 S228P, kappa, V domains shown) VH: QVTLRESGPALVKPTQTLTLTCTVSGASLSAYSVNWIRQPPGKALEWLAMIWGSGKIVYNSALKSRLTISKDTSKNQVVLTMTNMDPVDTATYYCAGDGYYPYAMDNWGQGSLVTVSS VL: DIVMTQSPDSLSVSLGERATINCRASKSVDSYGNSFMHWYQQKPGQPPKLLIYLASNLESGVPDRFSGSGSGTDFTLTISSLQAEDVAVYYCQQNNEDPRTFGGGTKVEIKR
8.37

Input NB-12 (antibody, human IgG4 S228P, kappa, V domains shown) VH: QVTLRESGPALVKPTQTLTLTCTVSGASLSAYSVNWIRQPPGKALEWLAMIWGDGKIVYNSALKSRLTISKDTSKNQVVLTMTNMDPVDTATYYCAGDGYYPWAMDNWGQGSLVTVSS VL: DIVMTQSPDSLSVSLGERATINCRASQSVDSYGNSFMHWYQQKPGQPPKLLIYLASNLESGVPDRFSGSGSGTDFTLTISSLQAEDVAVYYCQQNNEDPRTFGGGTKVEIKR , output reported pKd.
8.22

Quote pKd reported for NB-1 (antibody, human IgG4 S228P, kappa, V domains shown) VH: QVTLRESGPALVKPTQTLTLTCTVSGASLSAYSVNWIRQPPGKALEWLAMIWGDGKIVYNSALKSRLTISKDTSKNQVVLTMTNMDPVDTATYYCAGLGYYPYAMDLWGQGSLVTVSS VL: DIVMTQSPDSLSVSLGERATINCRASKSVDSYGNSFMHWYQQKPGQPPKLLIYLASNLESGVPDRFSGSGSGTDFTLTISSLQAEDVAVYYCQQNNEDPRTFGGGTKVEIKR please.
8.28
